Attribution: patent US20220235123A1

- system tested: T1, recombinant human vascular endothelial growth factor (hVEGF) 121 (human, UniProt P15692 27-147)
- T1 construct: mature; also called human VEGF-A121; hVEGF 121 isoform
- T1 sequence (looked up): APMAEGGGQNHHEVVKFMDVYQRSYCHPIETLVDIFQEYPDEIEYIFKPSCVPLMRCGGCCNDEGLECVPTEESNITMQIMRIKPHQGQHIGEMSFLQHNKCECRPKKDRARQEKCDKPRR
- protocol notes: SPR, off rate of hVEGF-121 binding
assay readout: koff

Q: Give me measured koff, please, for this binder: FF03033-4 (Fab, V domains shown, fifth generation Fab with one residue deleted near the end of CDR-L2; the text says FF03046-1 was made from it by putting the tyrosine back) VH: EVQLVESGGGLVQPGGSLRLSCAASGFDLFHYSIHWVRQAPGKGLEWVAYIYPSYGYTYYADSVKGRFTISADTSKNTAYLQMNSLRAEDTAVYYCARHAWYYGWGLDYWGQGTLVTVSS VL: DIQMTQSPSSLSASVGDRVTITCRASQEGWDRVAWYQQKPGKAPKLLIYSASQLAGVPSRFSGSRSGTDFTLTISSLQPEDFATYYCQQRGWYLFTFGQGTKVEIK
Ans: < 1e-06 s⁻¹

For each entry beneath this line, provide reported koff.
1. FF03033-8 (Fab, V domains shown, fifth generation Fab with one residue deleted near the end of CDR-L2; the text says FF03046-2 was made from it by putting the tyrosine back) VH: EVQLVESGGGLVQPGGSLRLSCAASGFDLFHYSIHWVRQAPGKGLEWVAYIYPSYGYTYYADSVKGRFTISADTSKNTAYLQMNSLRAEDTAVYYCARHAWYYGWGLDYWGQGTLVTVSS VL: DIQMTQSPSSLSASVGDRVTITCRASQAAYGRVAWYQQKPGKAPKLLIYKASELAGVPSRFSGSRSGTDFTLTISSLQPEDFATYYCQQRGWYLFTFGQGTKVEIK
2. FF0117-A5 (Fab, V domains shown, Fourth generation Fab; also called FF0117-A5 (2); Fab-A5) VH: EVQLVESGGGLVQPGGSLRLSCAASGFDLFHYSIHWVRQAPGKGLEWVAYIYPSYGYTYYADSVKGRFTISADTSKNTAYLQMNSLRAEDTAVYYCARHAWYYGWGLDYWGQGTLVTVSS VL: DIQMTQSPSSLSASVGDRVTITCRASQSVSSAVAWYQQKPGKAPKLLIYSASSLYSGVPSRFSGSRSGTDFTLTISSLQPEDFATYYCQQRGWYLFTFGQGTKVEIK

Ans:
1: < 1e-06 s⁻¹; 2: 0.000255 s⁻¹
